- TARGET OF ASSAY: hMC4 (Homo sapiens, UniProt P32245)
- Sequence (P32245 whole entry): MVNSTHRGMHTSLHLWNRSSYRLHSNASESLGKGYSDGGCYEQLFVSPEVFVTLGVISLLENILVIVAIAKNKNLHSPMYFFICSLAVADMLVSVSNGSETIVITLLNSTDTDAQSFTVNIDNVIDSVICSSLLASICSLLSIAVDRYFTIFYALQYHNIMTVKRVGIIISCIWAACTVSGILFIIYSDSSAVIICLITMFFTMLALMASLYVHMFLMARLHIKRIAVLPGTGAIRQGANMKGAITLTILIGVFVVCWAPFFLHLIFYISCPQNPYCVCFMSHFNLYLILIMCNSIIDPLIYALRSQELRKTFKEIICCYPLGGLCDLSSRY
- PROTOCOL DETAILS: Cyclic AMP bioassay (ECL), CHO-K1 cells expressing hMC4
- MEASUREMENT PARAMETERS: intracellular cAMP
PARAMETER MEASURED: pEC50
Numbers only, as −log10 of the molar value.

[Q] Report pEC50, nothing else, for this molecule: N=C(N)NCCC[C@@H]1NC(=O)[C@@H](Cc2ccccc2)NC(=O)[C@H](Cc2cnc[nH]2)NC(=O)[C@H](CCC(=O)O)NC(=O)[C@@H](NC(=O)[C@@H](CCCNC(=N)N)N2C(=O)CNC2=O)CSSC[C@@H](C(N)=O)NC(=O)[C@H](Cc2c[nH]c3ccccc23)NC1=O
[A] 9.90

[Q] Using the record for C[C@@H]1C(=O)N[C@@H](Cc2cnc[nH]2)C(=O)N[C@H](Cc2ccccc2)C(=O)N[C@@H](CCCNC(=N)N)C(=O)N[C@@H](Cc2c[nH]c3ccccc23)C(=O)N[C@H](C(N)=O)CNC(=O)CC[C@@H]2NC(=O)N1C2=O , state its measured pEC50.
[A] 9.74

[Q] Note down pEC50 recorded for C[C@H]1NC(=O)[C@@H](NC(=O)CN2C(=O)N[C@H](C)C2=O)CSSC[C@@H](C(N)=O)NC(=O)[C@H](Cc2c[nH]c3ccccc23)NC(=O)[C@H](CCCNC(=N)N)NC(=O)[C@@H](Cc2ccccc2)NC(=O)[C@H](Cc2cnc[nH]2)NC1=O
[A] 9.51

More entries:
[Q] In one line, give reported pEC50 of the entry C[C@@H]1C(=O)N[C@@H](Cc2cnc[nH]2)C(=O)N[C@H](Cc2ccccc2)C(=O)N[C@@H](CCCNC(=N)N)C(=O)N[C@@H](Cc2c[nH]c3ccccc23)C(=O)N[C@H](C(N)=O)CCCNC(=O)C[C@@H]2NC(=O)N1C2=O .
[A] 8.35

* * *

Could you please report measured pEC50 for the items listed next?
- TARGET OF ASSAY: hMC4 (Homo sapiens, UniProt P32245)
- Construct: expressed in transfected cells; host or cells: CHO-K1
- PROTOCOL DETAILS: Cyclic AMP bioassay (ECL), CHO-K1 cells expressing hMC4
- Assay type: cell-based
- MEASUREMENT PARAMETERS: intracellular cAMP
Give bare numbers, as −log10 of the molar value.

Examples from the recorded data:
[Q] Given the compound N=C(N)NCCC[C@@H]1NC(=O)[C@@H](Cc2ccccc2)NC(=O)[C@H](Cc2cnc[nH]2)NC(=O)[C@H](CCC(=O)O)NC(=O)[C@@H](NC(=O)CN2C(=O)N[C@H](CCCNC(=N)N)C2=O)CSSC[C@@H](C(N)=O)NC(=O)[C@H](Cc2c[nH]c3ccccc23)NC1=O , write its reported pEC50.
[A] 9.80

[Q] Provide measured pEC50 value, entry: N=C(N)NCCC[C@@H]1NC(=O)[C@@H](Cc2ccccc2)NC(=O)[C@H](Cc2cnc[nH]2)NC(=O)[C@H](CCC(=O)O)NC(=O)[C@@H](N2C(=O)CNC2=O)CSSC[C@@H](C(N)=O)NC(=O)[C@H](Cc2c[nH]c3ccccc23)NC1=O
[A] 9.24

New cases:
[Q] Give reported pEC50 value for CCCC[C@@H](C(=O)N[C@H]1CSSC[C@@H](C(N)=O)NC(=O)[C@H](Cc2c[nH]c3ccccc23)NC(=O)[C@H](CCCNC(=N)N)NC(=O)[C@@H](Cc2ccccc2)NC(=O)[C@H](Cc2cnc[nH]2)NC(=O)[C@@H](C)NC1=O)N1C(=O)N[C@H](C)C1=O
[A] 8.83

Reference source: patent US8563000B2
